FYI, the data here is from PubChem BioAssay.

Test: small-molecule microarray binders of probe aLefty2, primary screen, biochemical, biotinylated probe, 635/667 nm fluorescence (AID 1094);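 also: score merges spot fluorescence near 667 nm with spot signal-to-noise ratio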
Settings: higher = more signal
Would you please tag the item Condition met when its composite z-score is -0.1 or above, and Condition not met when it is below?

{"columns": ["MOLECULE", "DISCRETE LABEL"],
 "data": [
  ["Cc1cc2c(c(=O)o1)[C@@H](O)[C@H]1O[C@H]1C2=O", "Condition not met"],
  ["CCN1C(=O)[C@H]2[C@H]3[C@H](O)[C@H](O)CC(=NOCC(C)C)[C@@H]3CC[C@H]2C1=O", "Condition met"],
  ["CO[C@@H]1COC(=O)[C@H](CCSC)NC(=O)CC=C[C@@H](C)COC(=O)[C@H](C)NC(=O)CC=C[C@H]1C", "Condition not met"],
  ["CCOC(=O)[C@H](CC(C)C)NC(=O)CCC1CC(OC(=O)NCc2cccc3ccccc23)CC2(CCCC(COC(=O)NCC3CCCCC3)O2)O1 (stereo not given in full)", "Condition met"],
  ["C#CCCCON=C1[C@H]2CCn3c(=O)n(C)c(=O)n3[C@H]2[C@H](O)[C@@H]2O[C@H]12", "Condition not met"],
  ["CC(C)=CCCC(C)=CCON=C1C[C@@H](O)[C@@H](O)[C@@H]2[C@@H]3C(=O)N(Cc4ccccc4)C(=O)[C@@H]3CC[C@@H]12", "Condition not met"],
  ["CO[C@H]1COC(=O)[C@@H]2CCCN2C(=O)CC=C[C@@H](C)[C@H](OC)COC(=O)[C@@H](OCc2ccccc2)C=C[C@@H]1C", "Condition not met"],
  ["COC(=O)[C@H](C)NC(=O)CCC1CC(OC(=O)NCc2ccc3c(c2)OCO3)CC2(CCCC(COC(=O)NCC(c3ccccc3)c3ccccc3)O2)O1 (stereo not given in full)", "Condition not met"],
  ["CC(C)(C)N1C(=O)[C@H]2[C@H]3[C@H](O)[C@H](O)CC(=O)[C@H]3CC[C@H]2C1=O", "Condition not met"],
  ["CCOC(=O)[C@H](Cc1ccccc1)NC(=O)CCC1CC(OC(=O)NCCc2ccc(F)cc2)CC2(CCCC(COC(=O)NCc3ccccc3)O2)O1 (stereo not given in full)", "Condition met"],
  ["CC[C@@H](c1ccccc1)n1c(=O)n2n(c1=O)[C@H]1[C@H](O)[C@@H]3O[C@@H]3C(=NOC[C@@H](O)COCc3ccco3)[C@H]1CC2", "Condition not met"],
  ["COC(=O)[C@H](C)NC(=O)CCC1CC(OC(=O)NCCc2ccc(F)cc2)CC2(CCCC(COC(=O)NCc3cccc(C(F)(F)F)c3)O2)O1 (stereo not given in full)", "Condition met"],
  ["O=C1[C@H]2[C@H]3[C@H](O)[C@H](O)CC(=NOCc4ccccc4)[C@@H]3CC[C@H]2C(=O)N1Cc1ccc2c(c1)OCO2", "Condition not met"],
  ["O=C(NN=C1C[C@@H](O)[C@@H](O)[C@@H]2[C@@H]3C(=O)N(C4CCCCC4)C(=O)[C@@H]3CC[C@H]12)OCc1ccccc1", "Condition met"],
  ["CCOC(=O)[C@H](Cc1ccccc1)NC(=O)CCC1CC(OC(=O)NCc2cccc3ccccc23)CC2(CCCC(COC(=O)NCc3ccccc3)O2)O1 (stereo not given in full)", "Condition met"]
]}

* * *

Experiment: binders of probe aHhip on microarray, primary screen, stem cell growth factor project, biochemical, small-molecule microarray, fluorescence 635/667 (AID 1087);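 also: score merges spot fluorescence at 667nm with spot signal to noise ratio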
Conditions: higher = more signal

{"columns": ["MOLECULE", "composite z-score"],
 "data": [
  ["CCC(=O)[C@@]1(O)C(=O)N2C(=C3C(=O)OCC[C@@H]31)N(Cc1ccccc1)C(C)=C(C(=O)OC)[C@H]2c1ccccc1", 0.176],
  ["CCCNC(=O)OC[C@H]1O[C@H](CCON=C(C)CCC(=O)OC[C@H]2O[C@H](c3ccccc3)C=C[C@@H]2Oc2ccc(OC)cc2)C=C[C@@H]1Oc1ccc(OC)cc1", -0.0618],
  ["CCN1C(=O)[C@H]2[C@H]3[C@H](O)[C@H](O)CC(=NO[C@@H](C)c4cn([C@H](CO)Cc5ccccc5)nn4)[C@@H]3CC[C@H]2C1=O", -0.226],
  ["COC(=O)CC=C[C@@H](C)[C@@H](C=NO[C@H](C)c1cn([C@@H]2COC[C@H]2O)nn1)NS(=O)(=O)c1ccc(C)cc1", -0.166],
  ["C#CCCCON=C1C[C@@H](O)[C@@H](O)[C@@H]2[C@@H]3C(=O)N(C(C)(C)C)C(=O)[C@@H]3CC[C@H]12", -0.122],
  ["COC(=O)[C@@H]1CC[C@H](C)[C@@H](c2ccc(C)cc2)N1C(=O)c1ccc(C=NOC[C@@H](C)[C@H](OCc2ccccc2)C(C)C)cc1", 0.0373],
  ["C=COC[C@@H]1CN2[C@@H](CC[C@@H](C)[C@@H]2c2ccc(Br)cc2)C(=O)O1", 0.643]
]}

* * *

z-score reference
Assay: E. coli acrAB mutant growth effects, primary screen, E. coli filamentation inducers, strain DRC39, OD650, 48 h (AID 1179);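 also: screen aims at cell division blockers that make cells filament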
Conditions: E. coli DRC39 delta-acrAB growth, higher = more signal, called active from +8 up or from −8 down

{"columns": ["COMPOUND", "z-score"],
 "data": [
  ["COC(=O)CC=C[C@@H](C)[C@@H](C=NO[C@@H]1O[C@H](COC(C)=O)[C@@H](OC(C)=O)[C@H](OC(C)=O)[C@H]1OC(C)=O)OC", -0.932],
  ["CON=C1[C@H]2CCn3c(=O)n(-c4ccccc4)c(=O)n3[C@H]2[C@H](O)[C@@H]2O[C@H]12", -1.03],
  ["C#CCCCON=C1[C@H]2CCn3c(=O)n(C)c(=O)n3[C@H]2[C@H](O)[C@@H]2O[C@H]12", 0.385],
  ["CCOC(=O)[C@H](CC(C)C)NC(=O)CCC1CC(OC(=O)NCc2ccc3c(c2)OCO3)CC2(CCCC(COC(=O)NCC(c3ccccc3)c3ccccc3)O2)O1 (some centres not stated)", 0.321],
  ["CCOC(=O)[C@H](CC(C)C)NC(=O)CCC1CC(OC(=O)NCc2cccc3ccccc23)CC2(CCCC(COC(=O)NCCOc3ccccc3)O2)O1 (some centres not stated)", 0.253],
  ["CO[C@H]1COC(=O)[C@@H](Cc2ccccc2)NC(=O)[C@@H](C)COC(=O)CCC[C@@H]1C", 1.39],
  ["COC(=O)CC=C[C@@H](C)[C@@H](C=NOC[C@H]1O[C@H](c2ccccc2)C=C[C@@H]1Oc1ccc(OC)cc1)NS(=O)(=O)c1ccc(C)cc1", -0.913]
]}

* * *

Experiment: S. cerevisiae RM11-1a growth modifiers, primary screen, strain RM11-1a, OD600, basal, 24 h (AID 1177);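 also: cultures grown under basal conditions with no added stressor; test concentration not given here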
Settings: OD600, 24 h, higher = more signal, called active from +8 up or from −8 down
Assign true (1) whenever z-score does not fall below -0.03; assign false (0) whenever it does.

{"columns": ["COMPOUND", "DISCRETE LABEL"],
 "data": [
  ["CCOC(=O)[C@H](CC(C)C)NC(=O)CCC1CC(OC(=O)NCCc2ccc(F)cc2)CC2(CCCC(COC(=O)NCCc3ccc(Cl)cc3)O2)O1 (stereo not given in full)", "false (0)"],
  ["CON=C(C)CCC(=O)OC[C@H]1O[C@H](c2ccccc2)C=C[C@@H]1Oc1ccc(OC)cc1", "true (1)"],
  ["CC(C)=CCCC(C)=CCON=C1C[C@@H](O)[C@@H](O)[C@@H]2[C@@H]3C(=O)N(C(C)(C)C)C(=O)[C@@H]3CC[C@@H]12", "false (0)"],
  ["CC(C)=CCCC(C)=CCON=C1C[C@@H](O)[C@@H](O)[C@@H]2[C@@H]3C(=O)N(C(C)(C)C)C(=O)[C@@H]3CC[C@H]12", "false (0)"],
  ["O=C1C[C@@H](O)[C@@H](O)[C@@H]2[C@@H]3C(=O)N(Cc4ccc5c(c4)OCO5)C(=O)[C@@H]3CC[C@H]12", "false (0)"],
  ["CO[C@@H]1C=CCC(=O)N[C@@H](C)C(=O)OC[C@@H](OC)[C@H](C)CCCC(=O)OC[C@H]1C", "false (0)"],
  ["C[C@@H](ON=C1[C@H]2CCn3c(=O)n(-c4ccccc4)c(=O)n3[C@H]2[C@H](O)[C@@H]2O[C@H]12)c1cn([C@@H]2COC[C@H]2O)nn1", "false (0)"],
  ["CO[C@@H]1COC(=O)[C@@H]2CCCN2C(=O)[C@@H](C)COC(=O)CC=C[C@H]1C", "true (1)"],
  ["Cc1ccc(S(=O)(=O)OC[C@H]2CN3[C@H](c4ccc(Br)cc4)[C@@H](C)CC[C@H]3C(=O)O2)cc1", "false (0)"],
  ["C#CCCCON=C1C[C@@H](O)[C@@H](O)[C@@H]2[C@@H]3C(=O)N(Cc4ccccc4)C(=O)[C@@H]3CC[C@@H]12", "false (0)"],
  ["CCC(=O)[C@@]1(O)C(=O)N2C(=C3C(=O)OCC[C@@H]31)N(Cc1ccccc1)C(C)=C(C(=O)OC)[C@H]2c1ccccc1", "true (1)"],
  ["COC(=O)[C@@H]1CC[C@H](C)[C@@H](c2ccc(C)cc2)N1C(=O)c1ccc(C=NO[C@H](C)c2cn([C@H](CO)Cc3ccccc3)nn2)cc1", "true (1)"],
  ["CCOC(=O)[C@H](Cc1ccccc1)NC(=O)CCC1CC(OC(=O)NCc2ccc3c(c2)OCO3)CC2(CCCC(COC(=O)NCCC(C)C)O2)O1 (stereo not given in full)", "true (1)"],
  ["CO[C@H]1COC(=O)CC=C[C@H](C)[C@@H](OC)COC(=O)[C@@H](C)COC(=O)CC=C[C@@H]1C", "false (0)"],
  ["COC(=O)[C@H](C)NC(=O)CCC1CC(OC(=O)NCCc2ccc(F)cc2)CC2(CCCC(COC(=O)NCc3cccc(C(F)(F)F)c3)O2)O1 (stereo not given in full)", "true (1)"]
]}
